Where these numbers come from: patent US4966900A

Test system: E. cloacae 908RN
ASSAY: MIC
ASSAY_SETUP: Enterobacter cloacae, E. colacae 908RN, Table 5
Exercise: for every item that follows, state its recorded MIC.
Answers are plain numbers, in µg/mL.

Cc1cc(SCC2=C(C(=O)O)N3C(=O)C(NC(=O)C(=NOC(C)(C)C(=O)NNC(=O)c4ccc(O)c(O)c4)c4csc(N)n4)C3SC2)n2ncnc2n1 (centres unmarked); 3.13
CC(C)(ON=C(C(=O)NC1C(=O)N2C(C(=O)O)=C(CSc3c4c(nc5ncnn35)CCC4)CSC12)c1csc(N)n1)C(=O)NNC(=O)c1ccc(O)c(O)c1 (centres unmarked); 3.13
CC(C)(ON=C(C(=O)NC1C(=O)N2C(C(=O)O)=C(CSc3c4c(nc5c(C(=O)O)cnn35)CCC4)CSC12)c1csc(N)n1)C(=O)NNC(=O)c1ccc(O)c(O)c1 (centres unmarked); 0.78
Cc1cc(SCC2=C(C(=O)O)N3C(=O)C(NC(=O)C(=NOC(C)(C)C(=O)NNC(=O)c4ccc(O)c(O)c4)c4csc(N)n4)C3SC2)n2nnnc2n1 (centres unmarked); 6.25

We now examine a further compound.
Prompt: Name the reported MIC value associated with the compound Cc1nc2nc(C(=O)O)cc(SCC3=C(C(=O)O)N4C(=O)C(NC(=O)C(=NOC(C)(C)C(=O)NNC(=O)c5ccc(O)c(O)c5)c5csc(N)n5)C4SC3)n2n1 (centres unmarked)
Completion: 0.78

---

What MIC was measured for each of the following?
Test system: P. maltophilia OF247
ASSAY: MIC
ASSAY_SETUP: Stenotrophomonas maltophilia, Table 7
Give bare numbers, in µg/mL.

Some solved entries appear below for comparison.
CC(=O)Oc1ccc(C(=O)NNC(=O)C(C)(C)ON=C(C(=O)NC2C(=O)N3C(C(=O)O)=C(CSc4ccnc5nc(C(=O)O)nn45)CS[C@H]23)c2csc(N)n2)cc1OC(C)=O (stereo partly drawn); 0.78
CC(=O)Oc1ccc(C(=O)NNC(=O)C(C)(C)ON=C(C(=O)NC2C(=O)N3C(C(=O)O)=C(CSc4cc(C)nc5nc(C(F)(F)F)nn45)CS[C@H]23)c2csc(N)n2)cc1OC(C)=O (stereo partly drawn); 12.5

Here's the next entry for you.
Prompt: Need MIC, item CC(C)(ON=C(C(=O)NC1C(=O)N2C(C(=O)O)=C(CSc3ccnc4nc(C(=O)O)nn34)CS[C@H]12)c1csc(N)n1)C(=O)NNC(=O)c1ccc(O)c(O)c1 (stereo partly drawn)
Completion: 0.39

---

Task for the reader: assign each of the following compounds its reported MIC.
Test system: E. cloacae 908RN
ASSAY: MIC
ASSAY_SETUP: Enterobacter cloacae, E. cloacae 908RN, Table 6
Numbers only, in µg/mL.

Consider the reported MIC for these compounds:
Cc1nc2nc(C(=O)O)cc(SCC3=C(C(=O)O)N4C(=O)C(NC(=O)C(=NOC(C)(C)C(=O)NNC(=O)c5ccc(O)c(O)c5)c5csc(N)n5)C4SC3)n2n1 (stereo not shown); 0.78
Cc1nc2c(C(=O)O)cnn2c(SCC2=C(C(=O)O)N3C(=O)C(NC(=O)C(=NOC(C)(C)C(=O)NNC(=O)c4ccc(O)c(O)c4)c4csc(N)n4)C3SC2)c1C (stereo not shown); 0.78
Cc1cc(SCC2=C(C(=O)O)N3C(=O)C(NC(=O)C(=NOC(C)(C)C(=O)NNC(=O)c4ccc(O)c(O)c4)c4csc(N)n4)C3SC2)n2nnnc2n1 (stereo not shown); 3.13
Cc1cc(SCC2=C(C(=O)O)N3C(=O)C(NC(=O)C(=NOC(C)(C)C(=O)NNC(=O)c4ccc(O)c(O)c4)c4csc(N)n4)C3SC2)n2ncc(C(=O)O)c2n1 (stereo not shown); 3.13
Cc1cc(SCC2=C(C(=O)O)N3C(=O)C(NC(=O)C(=NOC(C)(C)C(=O)NNC(=O)c4ccc(O)c(O)c4)c4csc(N)n4)C3SC2)n2ncnc2n1 (stereo not shown); 3.13

For every record below, what is its MIC?
1. CC(C)(ON=C(C(=O)NC1C(=O)N2C(C(=O)O)=C(CSc3c4c(nc5c(C(=O)O)cnn35)CCC4)CSC12)c1csc(N)n1)C(=O)NNC(=O)c1ccc(O)c(O)c1 (stereo not shown)
2. CC(C)(ON=C(C(=O)NC1C(=O)N2C(C(=O)O)=C(CSc3c4c(nc5ncnn35)CCC4)CSC12)c1csc(N)n1)C(=O)NNC(=O)c1ccc(O)c(O)c1 (stereo not shown)
3. Cc1nc2ncnn2c(SCC2=C(C(=O)O)N3C(=O)C(NC(=O)C(=NOC(C)(C)C(=O)NNC(=O)c4ccc(O)c(O)c4)c4csc(N)n4)C3SC2)c1C (stereo not shown)
4. CC(C)(ON=C(C(=O)NC1C(=O)N2C(C(=O)O)=C(CSc3c4c(nc5nc(C(=O)O)nn35)CCC4)CSC12)c1csc(N)n1)C(=O)NNC(=O)c1ccc(O)c(O)c1 (stereo not shown)
5. Cc1nc2nc(C(=O)O)nn2c(SCC2=C(C(=O)O)N3C(=O)C(NC(=O)C(=NOC(C)(C)C(=O)NNC(=O)c4ccc(O)c(O)c4)c4csc(N)n4)C3SC2)c1C (stereo not shown)

Completion:
1: 1.56; 2: 12.5; 3: 3.13; 4: 0.2; 5: 0.2
